Values compiled from patent US20030068615A1.

- measured_on: HIV-1LAI envelope gp120 (Human immunodeficiency virus type 1 group M subtype B, UniProt P03377)
- Type: binding
- reported_conditions: human CD4 21-mer scan; empty control 2075
parameter_measured: number of radioactive decays (counts) counted

[
  {
    "sequence_content": "LLSDSGQVLLESNIKVLPTWS [human CD4 371-391]",
    "observed_measurement": 2375
  },
  {
    "sequence_content": "YAGSGNLTLALEAKTGKLHQE [human CD4 291-311]",
    "observed_measurement": 1830
  },
  {
    "sequence_content": "SSSKSWITFDLKNKEVSVKRV [human CD4 246-266]",
    "observed_measurement": 1761
  },
  {
    "sequence_content": "KASSIVYKKEGEQVEFSFPLA [human CD4 206-226]",
    "observed_measurement": 14347
  },
  {
    "sequence_content": "KAVWVLNPEAGMWQCLLSDSG [human CD4 356-376]",
    "observed_measurement": 3133
  },
  {
    "sequence_content": "FIGLGIFFCVRCRHRRRQAER",
    "observed_measurement": 1900
  },
  {
    "sequence_content": "GELWWQAERASSSKSWITFDL [human CD4 236-256]",
    "observed_measurement": 2730
  },
  {
    "sequence_content": "RRQAERMSQLKRLLSEKKTCQ [human CD4, printed 42E-446]",
    "observed_measurement": 1607
  },
  {
    "sequence_content": "VMRATQLQKNLTCEVWGPTSP [human CD4 316-336]",
    "observed_measurement": 2144
  },
  {
    "sequence_content": "KLQMGKKLPLHLTLPQALPQY",
    "observed_measurement": 1949
  },
  {
    "sequence_content": "NLTLALEAKTGKLHQEVNLVV [human CD4 296-316]",
    "observed_measurement": 1676
  },
  {
    "sequence_content": "VYKKEGEQVEFSFPLAFTVEK [human CD4 211-231]",
    "observed_measurement": 14740
  }
]

###

- measured_on: HIV-1LAI envelope gp120 (Human immunodeficiency virus type 1 group M subtype B, UniProt P03377)
- Format: binding
- reported_conditions: STRL33 amino terminus; 15-mer starting at the first residue of the printed sequence; background subtracted
Label scheme for Binding Results For Window Length (counts bound-background), 15: lower than 1000 counts is No, 1000 counts and above is Yes.

[
  {
    "sequence_content": "EDYGFSSFNDSSQEEHQA",
    "class_name": "Yes"
  },
  {
    "sequence_content": "GFSSFNDSSQEEEQAFLQ",
    "class_name": "No"
  },
  {
    "sequence_content": "EHDYHEDYGFSSFNDSSQ",
    "class_name": "Yes"
  },
  {
    "sequence_content": "DYGFSSFNDSSQEEHQAF [STRL33 segment 9-26]",
    "class_name": "No"
  },
  {
    "sequence_content": "FSSFNDSSQEEHQAFLQF",
    "class_name": "No"
  },
  {
    "sequence_content": "YGFSSFNDSSQEEHQAFL",
    "class_name": "No"
  },
  {
    "sequence_content": "HDYHEDYGFSSFNDSSQE",
    "class_name": "Yes"
  },
  {
    "sequence_content": "MAEHDYHEDYGFSSFNDS [STRL33 segment 1-18]",
    "class_name": "Yes"
  },
  {
    "sequence_content": "FNDSSQEEEQAFLQFSKV",
    "class_name": "Yes"
  },
  {
    "sequence_content": "SSFNDSSQEEHQAFLQFS [STRL33 segment 13-30]",
    "class_name": "No"
  }
]

###

# Binding Results For Window Length (counts bound-background), 18 per record follows
- measured_on: HIV-1LAI envelope gp120 (Human immunodeficiency virus type 1 group M subtype B)
- Assay type: binding
- reported_conditions: STRL33 amino terminus; 18-mer starting at the first residue of the printed sequence; background subtracted
parameter_measured: Binding Results For Window Length (counts bound-background), 18 (counts)

[
  {
    "sequence_content": "EHDYHEDYGFSSFNDSSQ",
    "observed_measurement": 1219
  },
  {
    "sequence_content": "DYHEDYGFSSFNDSSQEE [STRL33 segment 5-22]",
    "observed_measurement": 1191
  },
  {
    "sequence_content": "FNDSSQEEEQAFLQFSKV",
    "observed_measurement": 4678
  },
  {
    "sequence_content": "EDYGFSSFNDSSQEEHQA",
    "observed_measurement": 548
  },
  {
    "sequence_content": "HDYHEDYGFSSFNDSSQE",
    "observed_measurement": 1500
  },
  {
    "sequence_content": "DYGFSSFNDSSQEEHQAF [STRL33 segment 9-26]",
    "observed_measurement": 440
  },
  {
    "sequence_content": "SFWDSSQEEEQAFLQFSK",
    "observed_measurement": 4537
  },
  {
    "sequence_content": "AEHDYHEDYGFSSFNDSS",
    "observed_measurement": 1014
  },
  {
    "sequence_content": "YGFSSFNDSSQEEHQAFL",
    "observed_measurement": 1138
  },
  {
    "sequence_content": "FSSFNDSSQEEHQAFLQF",
    "observed_measurement": 3608
  },
  {
    "sequence_content": "SSFNDSSQEEHQAFLQFS [STRL33 segment 13-30]",
    "observed_measurement": 6038
  },
  {
    "sequence_content": "MAEHDYHEDYGFSSFNDS [STRL33 segment 1-18]",
    "observed_measurement": 1386
  },
  {
    "sequence_content": "YHEDYGFSSFNDSSQEEH",
    "observed_measurement": 985
  },
  {
    "sequence_content": "HEDYGFSSFNDSSQEEHQ",
    "observed_measurement": 537
  },
  {
    "sequence_content": "GFSSFNDSSQEEEQAFLQ",
    "observed_measurement": 1639
  }
]

###

- measured_on: HIV-1LAI envelope gp120 (Human immunodeficiency virus type 1 group M subtype B, UniProt P03377)
- Type: binding
- reported_conditions: Panel D, 9-mers and 12-mers of CD4; empty control […]

[
  {
    "sequence_content": "QKEEVQLLVFGL",
    "COUNTS of radiolabeled gp120 retained (counts)": 1785
  },
  {
    "sequence_content": "GNFPLIIKN",
    "COUNTS of radiolabeled gp120 retained (counts)": 600
  },
  {
    "sequence_content": "DSDTYICEV",
    "COUNTS of radiolabeled gp120 retained (counts)": 712
  },
  {
    "sequence_content": "NSDTHLLQGQSL",
    "COUNTS of radiolabeled gp120 retained (counts)": 585
  },
  {
    "sequence_content": "KIEDSDTYICEV",
    "COUNTS of radiolabeled gp120 retained (counts)": 601
  },
  {
    "sequence_content": "QGNFPLIIK",
    "COUNTS of radiolabeled gp120 retained (counts)": 508
  },
  {
    "sequence_content": "DTYICEVED",
    "COUNTS of radiolabeled gp120 retained (counts)": 1043
  },
  {
    "sequence_content": "DTHLLQGQSLTL",
    "COUNTS of radiolabeled gp120 retained (counts)": 527
  },
  {
    "sequence_content": "FGLTANSDTHLL",
    "COUNTS of radiolabeled gp120 retained (counts)": 571
  },
  {
    "sequence_content": "LLVFGLTAN",
    "COUNTS of radiolabeled gp120 retained (counts)": 576
  },
  {
    "sequence_content": "VQLLVFGLTANS",
    "COUNTS of radiolabeled gp120 retained (counts)": 747
  },
  {
    "sequence_content": "SDTHLLQGQSLT",
    "COUNTS of radiolabeled gp120 retained (counts)": 540
  },
  {
    "sequence_content": "HLLQGQSLTLTL",
    "COUNTS of radiolabeled gp120 retained (counts)": 701
  },
  {
    "sequence_content": "TANSDTHLLQGQ",
    "COUNTS of radiolabeled gp120 retained (counts)": 549
  },
  {
    "sequence_content": "LQGQSLTLT",
    "COUNTS of radiolabeled gp120 retained (counts)": 501
  },
  {
    "sequence_content": "NFPLIIKNLKIE",
    "COUNTS of radiolabeled gp120 retained (counts)": 647
  },
  {
    "sequence_content": "IKNLKIEDSDTY",
    "COUNTS of radiolabeled gp120 retained (counts)": 574
  },
  {
    "sequence_content": "EVEDQKEEV",
    "COUNTS of radiolabeled gp120 retained (counts)": 587
  },
  {
    "sequence_content": "GQSLTLTLE",
    "COUNTS of radiolabeled gp120 retained (counts)": 777
  },
  {
    "sequence_content": "DQGNFPLIIKNL",
    "COUNTS of radiolabeled gp120 retained (counts)": 604
  },
  {
    "sequence_content": "EVQLLVFGLTAN",
    "COUNTS of radiolabeled gp120 retained (counts)": 1838
  },
  {
    "sequence_content": "EEVQLLVFGLTA",
    "COUNTS of radiolabeled gp120 retained (counts)": 3261
  },
  {
    "sequence_content": "VQLLVFGLT",
    "COUNTS of radiolabeled gp120 retained (counts)": 815
  },
  {
    "sequence_content": "CEVEDQKEE",
    "COUNTS of radiolabeled gp120 retained (counts)": 555
  },
  {
    "sequence_content": "HLLQGQSLT",
    "COUNTS of radiolabeled gp120 retained (counts)": 564
  },
  {
    "sequence_content": "LTANSDTHLLQG",
    "COUNTS of radiolabeled gp120 retained (counts)": 534
  },
  {
    "sequence_content": "GNFPLIIKNLKI",
    "COUNTS of radiolabeled gp120 retained (counts)": 547
  },
  {
    "sequence_content": "LKIEDSDTYICE",
    "COUNTS of radiolabeled gp120 retained (counts)": 635
  },
  {
    "sequence_content": "IKNLKIEDS",
    "COUNTS of radiolabeled gp120 retained (counts)": 557
  },
  {
    "sequence_content": "EDQKEEVQLLVF",
    "COUNTS of radiolabeled gp120 retained (counts)": 1379
  },
  {
    "sequence_content": "KIEDSDTYI",
    "COUNTS of radiolabeled gp120 retained (counts)": 603
  },
  {
    "sequence_content": "DTYICEVEDQKE",
    "COUNTS of radiolabeled gp120 retained (counts)": 720
  },
  {
    "sequence_content": "LVFGLTANS",
    "COUNTS of radiolabeled gp120 retained (counts)": 522
  },
  {
    "sequence_content": "LIIKNLKIEDSD",
    "COUNTS of radiolabeled gp120 retained (counts)": 619
  },
  {
    "sequence_content": "YICEVEDQKEEV",
    "COUNTS of radiolabeled gp120 retained (counts)": 734
  },
  {
    "sequence_content": "EDQKEEVQL",
    "COUNTS of radiolabeled gp120 retained (counts)": 564
  },
  {
    "sequence_content": "IIKNLKIEDSDT",
    "COUNTS of radiolabeled gp120 retained (counts)": 511
  },
  {
    "sequence_content": "ANSDTHLLQ",
    "COUNTS of radiolabeled gp120 retained (counts)": 642
  },
  {
    "sequence_content": "KEEVQLLVF",
    "COUNTS of radiolabeled gp120 retained (counts)": 1273
  },
  {
    "sequence_content": "PLIIKNLKI",
    "COUNTS of radiolabeled gp120 retained (counts)": 697
  },
  {
    "sequence_content": "SDTYICEVE",
    "COUNTS of radiolabeled gp120 retained (counts)": 819
  },
  {
    "sequence_content": "CEVEDQKEEVQL",
    "COUNTS of radiolabeled gp120 retained (counts)": 561
  },
  {
    "sequence_content": "SDTHLLQGQ",
    "COUNTS of radiolabeled gp120 retained (counts)": 526
  }
]
